experiment: Part 3 relative bioavailability (tablet vs powder-in-capsule) with food effect: plasma PK, 10 mg; assay type: in vivo, human; conditions: human, plasma, oral, 10 mg, 10 mg Tablet (Fasted), Cohort 2
Experimental endpoint: Tmax (h)

INSERT INTO measurements (molecule, experimental_endpoint, reported_value) VALUES
  ('CS(=O)(=O)N[C@H]1CCCN2C(=O)COc3ccccc3C3CCC(CC3)OCC12 (stereo partly shown)', 'Tmax', 2.5);

---

test: Part 2 MAD: plasma pharmacokinetics, once daily for 10 days; format: in vivo, human; details: 15 mg
Experimental endpoint: Accumulation ratio (Day 10/Day 1) Cmax

INSERT INTO results (compound, experimental_endpoint, reported_value) VALUES
  ('CS(=O)(=O)N[C@H]1CCCN2C(=O)COc3ccccc3C3CCC(CC3)OCC12 (stereo partly shown) [Compound A]', 'Accumulation ratio (Day 10/Day 1) Cmax', 1.15);

Taken from patent US20250186405A1.
